assay: yeast display, Sf9 membrane polyspecificity reagent, FACS + sequencing; frameworks hold sequencing errors
readoutType: polyreactivity (PSR sort gate)

Answered examples (5):
QVQLVESGVVLVQAGGSLRLSCAASGRIFRYYVMGWYRQAPGKERELVAAITNDGGNTNYADSVKGRFTISRDNEKNTVYLQMNSLKPEDTAVYYCNADRTHDRNPYTYATFDYWGQGTQVTVSS	low polyreactivity
QVQLVESGGGLVQAGGSLRLSCAASGSTFYGYGMGWYRQAPGKERELVAAITGYGDTTYYADSVKGRFTISRDYAKNTVDLQMNSLKPEDTAVYYCNARWHAEYDYWGQGTQVTVSS	low polyreactivity
QVQLVESGGGLVQAGGSLRLSCAASGRTFYPNAMGWSRQAPGKERELVAAINSGGSTYYADSVKGRFTISRDNAKNTVYLQMNSLKPEDTAVYYCNAERRIAYEYWGQGTQVTVSS	low polyreactivity
QVQLVESGGGLVQAGGSLRLSCSASGSTSYYYAMGWYRQAPGKERELVATISTTGAGTYYADSVKGRFTISRDNAKTTVYLQMNILKPEDTAVFYCAKDGKASRDDAEYYYWGQGTQVTVSS	low polyreactivity
QDQLVESGGGLVQAGCSLRLSCAASGSTFHLNAMGWYRQAPGKERELVAAITWSGGSTYYADSVKGRFTISRDNAKNTVYLQMNSLKPEDTAVYYCNAGLGKFPVKGGRRYRLDYWGQGTQVTVSS	low polyreactivity

Ask: polyreactivity (PSR sort gate) lookup needed for QVQLVESGGGLVQAGGSLRLSCAASGLIFATTVLGWYRQAPGKERELVASITTSGSRTYYADSVKGRFTISRDNAKNTVYLQMNSLKPEDTAVYYCAAYPTYLTPSSPGYDYWGQGTQVTVSS , thanks.
Reply: high polyreactivity

Ask: polyreactivity (PSR sort gate) lookup needed for QVQLVESGGGLVQAGGSLRLSCAASGSTFVLNAMGWYRQAPGKERELVAAINLDSGNTNYADSVKGRFTISRDNAKNTVYLQMNSLKPEDTAVYYCNTDVKFGGTAYDYWGQGTQVTVSS , thanks.
Reply: low polyreactivity

Ask: polyreactivity (PSR sort gate) lookup needed for HVQLVESGGGLVQAGGSLRLSCAASGSTFDVYAMGWYRQAPGKERELVAAISRSGGSTYYADSVKGRFTISRDNAKNTVYLQMNSLKPEDTAVYYCNARLARWGSYEYNYWGQGTQVTVSS , thanks.
Reply: low polyreactivity

* * *

assay: yeast display, Sf9 membrane polyspecificity reagent, FACS + sequencing; frameworks hold sequencing errors
readoutType: polyreactivity (PSR sort gate)

QVQLVESGGGLLQAGGTLRLSCAASGSTFSKNAMGWYRQAPGKERELVAAISSRGGNTYYADSVKGRFTISRDNAKNTVYLQMNSLKPEDTAVYYCAKALRTYQRTGWYDYWGQGTQVTVSS	high polyreactivity
QVQLVESGGGLVQAGGSLRLSCAASGRTFGVYAMGWYRQATGKERELVAGIRWRGGSTYYADSVKGRFTISRDNAKNTVYLQMNSLKPEDTAVYYCAAKVYYLYDSIWAWVIIRYDYWGQGTQVTVSS	low polyreactivity
QVQLVESGGGLVQSGGSLRLSCAASGSILKFNAMVWYRQAPGKERELVAAITRGTNTYYADSVKGRFTISRDNAKNTVYLQMNSLKPEDTAVYYCAARLPYNAIGYYYWGQGTQVTVSS	low polyreactivity
QVQLVESGGGLVQAGGSLRLSCAASGYIFYRNAMGWYRQAPVKEREFVAAISSSGVSTYYADSVKGRFTISRDNAKNTVYLQMNSLKPEDTAVYYCAASYLTWKRRYDYWGQGTQVTVSS	high polyreactivity
QVQLVESGGGLVQAGGSLRLSCAASGSIFEFNTMGWYRQAPGKERELVAAISSADTTNYADSVKGRFTISRDNAKNTVYLQMNSLKPEDTAVYYCNKELHLSATLRVLGFDYWGQGTQVTVSS	low polyreactivity
QVQLVESGGGLVQAGGSLRLSCAASGSILRKYAMGWYRQAPGKERELVAAISWSGGSTYYADSVKGRFTISRDNAKNTVYVQMNSLKPEDTAVYYCNRDGLSRPYYYWGQGTQVTVSS	high polyreactivity

Ask: polyreactivity (PSR sort gate) lookup needed for QVQLVESGGGLVQAGGSLRLSCAASGTTFGRNAMGWYRQAPGKERELVAAITACGGTTYYADSVKGRFTISRDNAKNTVYLQMNSLKPEDTAVYYCARAGHFSFKYDYWGQGTQVTVSS , thanks.
Reply: low polyreactivity

Ask: polyreactivity (PSR sort gate) lookup needed for QVQLVESGGGLVQAGGSLRLSCAASGSTFPFYVMGWYRQAPGKERELVASITATGSSTYYADSVKGRFTISRDNAKNTVYLQMNRLKPEDTAVYYCAAPYFGWYLGYYWYREYDYWGQGTQVTVSS , thanks.
Reply: low polyreactivity

Ask: polyreactivity (PSR sort gate) lookup needed for QVQLEESGGGLVQAGGSLRLTCAASGRIFTPYAMGWYRQAPGKQTELVADIRDGSTYYADSVKGRFTISRDNAKNTVYLQMNSLKPEDTAVYYSRYYIWVWWSGAYDYWGQGTQVTVSS , thanks.
Reply: low polyreactivity

Ask: polyreactivity (PSR sort gate) lookup needed for QVQLVESGGGLLQAGVSLRLSCAASGRIYSKYAMGRYRQAPGKERELVAAITYSGGSTYYADSVKGRFTISRDNAKNTVYLQMNSLKPEDSAVYYCAAVHCTSYSKWFGYWGQGTQVSVSS , thanks.
Reply: low polyreactivity

Ask: polyreactivity (PSR sort gate) lookup needed for QVQLVESGGGLVQAGGSLRLSCAASGRIFTKYAMGWYRQAPGKERELVAAISGSGGPTYYADSVKGRFTISRDNAKNTVYLQINSLKPEDTAVYYCGVPEIFDPKYQNDYWGQGTQVTVSS , thanks.
Reply: low polyreactivity
